- System: human ether-à-go-go-related gene (hERG) potassium channel (human)
- Procedure Text: primary screen, population patch clamp on CHO cells stably expressing hERG; higher = less effect of the substance
Hit rate of the full screen: of about 310,000 compounds, about 14,000 (4.5%) showed an effect of 50% or more. Effects have a minus sign here. This excerpt belongs to a sample that is enriched for strong results.
Outcome: class 1 for hERG current change (%, negative = inhibition) at 10uM of at least -20%; class 0 for anything lower.

// below: answered compounds
[[record]]
compound = "COCCNC(=S)Nc1cc(OC)c(NC(=O)c2ccco2)cc1OC"
class_label = "class 1"

[[record]]
compound = "COC1CCN(C(=O)c2cc(COc3ccc(-n4cncn4)cc3)on2)CC1"
class_label = "class 1"

[[record]]
compound = "CCc1ccc(CN(C)C(=O)c2cc(COc3ccc(-n4cncn4)cc3)on2)cc1"
class_label = "class 0"

[[record]]
compound = "COc1cccc(CN(C)C(=O)c2cc(COc3ccc(-n4cncn4)cc3)on2)c1"
class_label = "class 0"

[[record]]
compound = "COCCOC1CCN(C(=O)c2cc(COc3ccc(-n4cncn4)cc3)on2)CC1"
class_label = "class 0"


QUERY: Is reported hERG current change (%, negative = inhibition) at 10uM greater than or equal to -20% here: CN(Cc1ccc(F)cc1)C(=O)c1cc(COc2ccc(F)cc2F)on1
RESULT: class 1

QUERY: Hello, I need to know if CN(CC(=O)Nc1ccccc1Br)C(=O)CCC1CCCC1 has measured hERG current change (%, negative = inhibition) at 10uM not below -20%. Thanks!
RESULT: class 1

QUERY: Answer whether hERG current change (%, negative = inhibition) at 10uM of CCCOC1CCCN(C(=O)c2cc(COc3ccc(-n4cncn4)cc3)on2)C1 (stereo not drawn) is greater than or equal to -20%.
RESULT: class 0

QUERY: Decide: hERG current change (%, negative = inhibition) at 10uM of CN(Cc1ccc(F)cc1)C(=O)c1cc(COc2ccc(-n3cncn3)cc2)on1 >= -20%?
RESULT: class 0

* * *

- System: human ether-à-go-go-related gene (hERG) potassium channel (human, UniProt Q12809);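 note: peak tail current of the secondary pulse compared with the same well before compound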
- Sequence (Q12809 whole entry, looked up): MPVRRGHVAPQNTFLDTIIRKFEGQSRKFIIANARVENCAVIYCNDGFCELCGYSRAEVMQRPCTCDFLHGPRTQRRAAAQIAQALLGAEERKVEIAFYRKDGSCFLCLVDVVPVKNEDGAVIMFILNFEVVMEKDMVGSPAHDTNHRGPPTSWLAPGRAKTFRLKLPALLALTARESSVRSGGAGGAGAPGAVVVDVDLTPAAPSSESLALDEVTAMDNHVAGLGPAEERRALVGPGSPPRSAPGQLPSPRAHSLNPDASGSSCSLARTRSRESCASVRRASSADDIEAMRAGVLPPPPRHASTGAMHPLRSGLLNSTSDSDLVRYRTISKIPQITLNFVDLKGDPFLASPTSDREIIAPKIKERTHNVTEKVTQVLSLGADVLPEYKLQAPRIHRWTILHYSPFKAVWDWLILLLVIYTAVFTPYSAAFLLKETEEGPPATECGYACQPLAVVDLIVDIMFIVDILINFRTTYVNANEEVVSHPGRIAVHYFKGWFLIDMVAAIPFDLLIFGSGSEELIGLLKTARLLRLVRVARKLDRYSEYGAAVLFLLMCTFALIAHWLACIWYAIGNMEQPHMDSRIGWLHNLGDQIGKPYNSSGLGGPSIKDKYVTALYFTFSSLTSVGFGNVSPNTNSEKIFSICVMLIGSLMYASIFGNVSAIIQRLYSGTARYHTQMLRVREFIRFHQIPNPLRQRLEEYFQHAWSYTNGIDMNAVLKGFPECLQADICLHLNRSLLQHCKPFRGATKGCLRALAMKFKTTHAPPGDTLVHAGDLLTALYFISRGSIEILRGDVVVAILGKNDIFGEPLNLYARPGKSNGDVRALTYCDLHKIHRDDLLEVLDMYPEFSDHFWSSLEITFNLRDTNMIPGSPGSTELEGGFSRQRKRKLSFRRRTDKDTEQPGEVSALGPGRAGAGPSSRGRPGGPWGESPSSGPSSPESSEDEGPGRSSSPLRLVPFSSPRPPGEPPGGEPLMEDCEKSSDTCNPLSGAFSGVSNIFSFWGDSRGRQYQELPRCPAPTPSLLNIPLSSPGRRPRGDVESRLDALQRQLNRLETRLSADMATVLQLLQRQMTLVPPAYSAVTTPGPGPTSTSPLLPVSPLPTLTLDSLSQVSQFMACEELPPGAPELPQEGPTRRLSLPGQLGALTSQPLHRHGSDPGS
- Procedure Text: primary screen, population patch clamp on CHO cells stably expressing hERG; higher = less effect of the substance
Screen size: about 310,000 compounds; about 14,000 (4.5%) showed an effect of 50% or more. The effect is printed as a negative number. This is one part of a sample in which strong results are shown more often than they occur.
Property Name: hERG current change (%, negative = inhibition) at 10uM

Examples with their reported hERG current change (%, negative = inhibition) at 10uM follow.
[[record]]
molecule = "Cn1c(=O)c2c(nc(SCC(=O)NCc3ccc4c(c3)OCO4)n2Cc2ccccc2)n(C)c1=O"
system = "human ether-à-go-go-related gene (hERG) potassium channel (human, UniProt Q12809)"
measurement = "-46.9%"

[[record]]
molecule = "Cn1c(=O)c2c(nc(SCC(=O)NCc3ccc4c(c3)OCO4)n2Cc2ccc(F)cc2)n(C)c1=O"
system = "human ether-à-go-go-related gene (hERG) potassium channel (human, UniProt Q12809)"
measurement = "-63.1%"

[[record]]
molecule = "CCn1c(SCC(=O)Nc2ccc3c(c2)OCO3)nc2c1c(=O)n(C)c(=O)n2C"
system = "human ether-à-go-go-related gene (hERG) potassium channel (human, UniProt Q12809)"
measurement = "-0.539%"


QUERY: Please indicate hERG current change (%, negative = inhibition) at 10uM recorded for Cn1c(=O)c2c(nc(SCC(=O)NCC3CCCO3)n2Cc2ccc(F)cc2)n(C)c1=O (stereo not shown)
RESULT: -41.6%

* * *

Collected hERG current change (%, negative = inhibition) at 10uM values appear next to each entry.
- System: human ether-à-go-go-related gene (hERG) potassium channel (human, UniProt Q12809);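 note: peak tail current of the secondary pulse compared with the same well before compound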
- Procedure Text: primary screen, population patch clamp on CHO cells stably expressing hERG; higher = less effect of the substance
- Method: Briefly, Chinese hamster ovary (CHO) cells stably expressing the hERG channel were dislodged from tissue culture flasks and dispensed into PPC plates. […] During the recording, background leak currents were estimated by a 100 ms step to -80 mV from an initial holding potential of -70 mV and subtracted from the subsequent current measurement. The campaign was conducted in two phases using slight differences in recording protocol. […]
The whole screen tested about 310,000 compounds, of which about 14,000 (4.5%) showed an effect of 50% or more. The effect is printed as a negative number. The full list was thinned out, with strong results kept by preference.
Report the figure in % without appending any unit label.

[[record]]
compound = "COc1cccc(CNC(=O)CCNC(=O)c2ccc(Br)o2)c1"
system = "human ether-à-go-go-related gene (hERG) potassium channel (human, UniProt Q12809)"
unit_of_measure = "%"
measurement = 11.2

[[record]]
compound = "COC(=O)C1=C(O)/C(=C\\c2ccc(OCC(=O)Nc3ccccc3OC)cc2)N=C1C"
system = "human ether-à-go-go-related gene (hERG) potassium channel (human, UniProt Q12809)"
unit_of_measure = "%"
measurement = 0.751

[[record]]
compound = "Cc1ccc(S(=O)(=O)N(C)c2ccc(OCC(=O)Nc3nc4ccccc4s3)cc2)cc1"
system = "human ether-à-go-go-related gene (hERG) potassium channel (human, UniProt Q12809)"
unit_of_measure = "%"
measurement = 17.8


QUERY: Identify hERG current change (%, negative = inhibition) at 10uM associated with the compound CC(C)NC(=S)NNC(=O)C12CC3CC(CC(C3)C1)C2
RESULT: -8.78

QUERY: Specify reported hERG current change (%, negative = inhibition) at 10uM for the compound shown: Clc1ccc(-c2cnc3ccccc3n2)cc1
RESULT: 9.07

* * *

- System: human ether-à-go-go-related gene (hERG) potassium channel (human);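 note: peak tail current of the secondary pulse compared with the same well before compound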
- Procedure Text: primary screen, population patch clamp on CHO cells stably expressing hERG; higher = less effect of the substance
In all, about 310,000 compounds went through this assay and about 14,000 (4.5%) showed an effect of 50% or more. Effects have a minus sign here. This is one part of a sample in which strong results are shown more often than they occur.
Property Name: hERG current change (%, negative = inhibition) at 10uM (%)
State just the number; it will be interpreted in %.

The cases that follow already have their hERG current change (%, negative = inhibition) at 10uM on record.
[[record]]
compound = "O=C(Nc1cccc(Cl)c1)c1nc[nH]c1C(=O)N1CCc2ccccc2C1"
unit_of_measure = "%"
measurement = -15.6

[[record]]
compound = "c1csc(CNc2ncnc3ccc(-c4ccoc4)cc23)c1"
unit_of_measure = "%"
measurement = -13.4

[[record]]
compound = "Br.CC(=O)c1ccc(N2Cc3ccccc3C3(CCOCC3)C2=N)cc1"
unit_of_measure = "%"
measurement = -57.5

[[record]]
compound = "Fc1cccc2sc(Nc3nc4cc5c(cc4s3)OCO5)nc12"
unit_of_measure = "%"
measurement = 20.3

[[record]]
compound = "CCOCCCNC(=O)c1cc2c(s1)-c1ccccc1SC2"
unit_of_measure = "%"
measurement = -5.28


QUERY: Identify the reported hERG current change (%, negative = inhibition) at 10uM for the following entry. COc1ccc2[nH]cc(C(=O)C(=O)N3CCCCC3)c2c1
RESULT: 5.35

QUERY: Output hERG current change (%, negative = inhibition) at 10uM of Cc1cc(C)n2c(=S)[nH]nc2n1
RESULT: 19.6

QUERY: Check the records and state hERG current change (%, negative = inhibition) at 10uM for CCOC(=O)c1c(NC(=O)CN2CCOCC2)sc2c1CCCC2=O
RESULT: -6.33

QUERY: Annotate the compound CN(CCC#N)C(=O)c1cc2c(s1)-c1ccccc1SC2 with its measured hERG current change (%, negative = inhibition) at 10uM.
RESULT: -8.88

QUERY: For the compound CC(=O)c1ccc(N2Cc3ccccc3C2)cc1 , give its measured hERG current change (%, negative = inhibition) at 10uM value.
RESULT: -2.58

QUERY: Identify the reported hERG current change (%, negative = inhibition) at 10uM for the following entry. c1ccc(CNc2ncnc3c2cnn3Cc2ccccc2)cc1
RESULT: -22

* * *

- System: human ether-à-go-go-related gene (hERG) potassium channel (human);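 note: peak tail current of the secondary pulse compared with the same well before compound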
- Procedure Text: primary screen, population patch clamp on CHO cells stably expressing hERG; higher = less effect of the substance
Screen size: about 310,000 compounds; about 14,000 (4.5%) showed an effect of 50% or more. The effect is printed as a negative number. This excerpt belongs to a sample that is enriched for strong results.
Below: a set of entries, each annotated with reported hERG current change (%, negative = inhibition) at 10uM.
Report the value in % with no unit label.

[[record]]
compound = "O=C(NCC1CCCN(Cc2ccccc2F)C1)c1cccc(C(F)(F)F)c1 (stereo not shown)"
unit_of_measure = "%"
measurement = -52.1

[[record]]
compound = "Cc1ccc(OCC(=O)NCCNC(=O)c2ccncc2)cc1C"
unit_of_measure = "%"
measurement = 15.9

[[record]]
compound = "Cc1cccc(N(C)c2cc(C)nc3nc(C)nn23)c1"
unit_of_measure = "%"
measurement = -15.8

[[record]]
compound = "OCc1nnc2c3ccccc3c(-c3ccccc3)nn12"
unit_of_measure = "%"
measurement = -4.77

[[record]]
compound = "COc1ccccc1CNC(=O)Cn1ccc2cc(S(=O)(=O)N3CCCC3)ccc21"
unit_of_measure = "%"
measurement = -3.32


Continue with the next compound.
QUERY: Give hERG current change (%, negative = inhibition) at 10uM for COCCCn1c(C(=O)Nc2ccc3c(c2)OCO3)cc2c(=O)n3ccccc3nc21
RESULT: 8.51
